Provenance of the data: the supplement of paper PMC7877785

- test_method_notes: self-splicing fitness, log relative to wild type (ln ratio); higher = more splicing; Tetrahymena group I intron in knt gene, E. coli kanamycin selection, DiMSum; sequences stand for … in CUCUCU…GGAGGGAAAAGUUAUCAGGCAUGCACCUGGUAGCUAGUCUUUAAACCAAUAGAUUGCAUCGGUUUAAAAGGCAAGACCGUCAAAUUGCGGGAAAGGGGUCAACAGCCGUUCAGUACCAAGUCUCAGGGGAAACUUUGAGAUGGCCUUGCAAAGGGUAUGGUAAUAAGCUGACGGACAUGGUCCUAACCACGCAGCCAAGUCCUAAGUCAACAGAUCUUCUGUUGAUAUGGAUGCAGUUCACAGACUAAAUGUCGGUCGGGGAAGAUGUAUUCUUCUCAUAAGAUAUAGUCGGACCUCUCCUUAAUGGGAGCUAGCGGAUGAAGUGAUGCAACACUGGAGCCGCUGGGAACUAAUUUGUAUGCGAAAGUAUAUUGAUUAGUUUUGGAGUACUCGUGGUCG;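 note: selection with 25 µg/mL kanamycin versus none on LB agar overnight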
- reported_conditions: 37 °C
I'd appreciate it if you could label each record using self-splicing fitness (ln) and these ranges: bucket 1: < -2; bucket 2: ≥ -2 and < -1; bucket 3: ≥ -1

{"sequence_chain": "AUGCAGCAAUAUUACGAAGG", "cat": "bucket 1"}
{"sequence_chain": "CUCCAGCAAUAUUACGCGGA", "cat": "bucket 1"}
{"sequence_chain": "UUGCAGCAAUAUUACGUCGG", "cat": "bucket 3"}
{"sequence_chain": "AUCGAGCAAUAUUACGACAU", "cat": "bucket 3"}
{"sequence_chain": "UGCGAGCAAUAUUACGCCGA", "cat": "bucket 2"}
{"sequence_chain": "CCAAAGCAAUAUUACGUCUC", "cat": "bucket 1"}
{"sequence_chain": "GCGAAGCAAUAUUACGUGGG", "cat": "bucket 1"}
{"sequence_chain": "UAUCAGCAAUAUUACGAUGC", "cat": "bucket 2"}
{"sequence_chain": "CGGAAGCAAUAUUACGCAUU", "cat": "bucket 1"}
{"sequence_chain": "CGUAAGCAAUAUUACGGGCU", "cat": "bucket 2"}
{"sequence_chain": "CAAAAGCAAUAUUACGAUCC", "cat": "bucket 2"}
{"sequence_chain": "AUCGAGCAAUAUUACGUAGC", "cat": "bucket 2"}
{"sequence_chain": "GAGCAGCAAUAUUACGAGCU", "cat": "bucket 2"}
{"sequence_chain": "CAACAGCAAUAUUACGCUAG", "cat": "bucket 1"}
{"sequence_chain": "CGUGAGCAAUAUUACGACGU", "cat": "bucket 1"}
{"sequence_chain": "CACCAGCAAUAUUACGAUUU", "cat": "bucket 2"}
{"sequence_chain": "CGCAAGCAAUAUUACGGUGA", "cat": "bucket 3"}
{"sequence_chain": "GGACAGCAAUAUUACGGGCU", "cat": "bucket 3"}
{"sequence_chain": "AGCUAGCAAUAUUACGCACG", "cat": "bucket 3"}
{"sequence_chain": "ACGGAGCAAUAUUACGUCGC", "cat": "bucket 2"}
{"sequence_chain": "GUAGAGCAAUAUUACGAUAC", "cat": "bucket 3"}
{"sequence_chain": "UGCUAGCAAUAUUACGGUCU", "cat": "bucket 3"}
{"sequence_chain": "GGGUAGCAAUAUUACGUAUA", "cat": "bucket 3"}
{"sequence_chain": "CGUUAGCAAUAUUACGCUAG", "cat": "bucket 2"}
{"sequence_chain": "UCAGAGCAAUAUUACGCGAA", "cat": "bucket 1"}
{"sequence_chain": "CUCCAGCAAUAUUACGUGUU", "cat": "bucket 1"}
{"sequence_chain": "AGGCAGCAAUAUUACGUAGC", "cat": "bucket 2"}
{"sequence_chain": "CCAAAGCAAUAUUACGGGUU", "cat": "bucket 1"}
{"sequence_chain": "UCCCAGCAAUAUUACGUUCA", "cat": "bucket 3"}
